tested on: 521955-158-R2-J5-PDC complex spheroids, viability; experiment: Anticancer human tumor 521955-158-R2-J5-PDC patient-derived pancreatic carcinoma cell line growth inhibition [RAS]; details: second compound 0.000949 µM; first compound 0.01 µM; active compounds read low
Sorting guide: entries reporting viability, T/C beneath 40% go in the TRUE pile, the rest go in the FALSE pile.

COMPOUND: C=CC(=O)Nc1cc(Nc2nccc(-c3cn(C)c4ccccc34)n2)c(OC)cc1N(C)CCN(C)C + CCn1c(-c2cccnc2C(C)OC)c2c3cc(ccc31)N1CCOC(CC(NC(=O)C(C(C)C)N(C)C(=O)C3(F)CCN(C(=O)C#CC(C)(C)N(C)C)CC3)C(=O)N3CCCC(N3)C(=O)OCC(C)(C)C2)C1
LABEL: FALSE
--
COMPOUND: O=C(c1ccc(F)c(F)c1Nc1ccc(I)cc1F)N1CC(O)([C@@H]2CCCCN2)C1 + CCn1c(-c2cccnc2C(C)OC)c2c3cc(ccc31)N1CCOC(CC(NC(=O)C(C(C)C)N(C)C(=O)C3(F)CCN(C(=O)C#CC(C)(C)N(C)C)CC3)C(=O)N3CCCC(N3)C(=O)OCC(C)(C)C2)C1
LABEL: FALSE
--
COMPOUND: O=C(c1ccc(F)c(F)c1Nc1ccc(I)cc1F)N1CC(O)([C@@H]2CCCCN2)C1 + CCn1c(-c2cc(N3CCN(C)CC3)cnc2C(C)OC)c2c3cc(ccc31)-c1csc(n1)CC(NC(=O)C1CC1C)C(=O)N1CCCC(N1)C(=O)OCC(C)(C)C2
LABEL: FALSE
--
COMPOUND: Nc1ccn(C2OC(CO)C(O)C2(F)F)c(=O)n1 (stereo not drawn) + CCn1c(-c2cccnc2C(C)OC)c2c3cc(ccc31)N1CCOC(CC(NC(=O)C(C(C)C)N(C)C(=O)C3(F)CCN(C(=O)C#CC(C)(C)N(C)C)CC3)C(=O)N3CCCC(N3)C(=O)OCC(C)(C)C2)C1
LABEL: FALSE
--
COMPOUND: Nc1ccn(C2OC(CO)C(O)C2(F)F)c(=O)n1 (stereo not drawn) + CCn1c(-c2cc(N3CCN(C)CC3)cnc2C(C)OC)c2c3cc(ccc31)-c1csc(n1)CC(NC(=O)C1CC1C)C(=O)N1CCCC(N1)C(=O)OCC(C)(C)C2
LABEL: TRUE
--
COMPOUND: C=CC(=O)N1CCN(c2nc(OCC3CCCN3C)nc3c(F)c(-c4nc(N)cc(C)c4C(F)(F)F)c(Cl)cc23)C(C)C1 (stereo not drawn) + CCn1c(-c2cc(N3CCN(C)CC3)cnc2C(C)OC)c2c3cc(ccc31)-c1csc(n1)CC(NC(=O)C1CC1C)C(=O)N1CCCC(N1)C(=O)OCC(C)(C)C2
LABEL: FALSE

====

test system: 521955-158-R2-J5-PDC complex spheroids, viability; experiment: Anticancer human tumor 521955-158-R2-J5-PDC cell line growth inhibition [RAS]; settings: compound 3.16 µM; active compounds read low;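 further: spheroids also contain HUVEC endothelial cells and mesenchymal stem cells as stroma; compound exposure lasted seven days before the viability read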

MOLECULE: CC1(O)CCCC1n1c(=O)c(C(F)F)cc2cnc(NC3CCN(S(C)(=O)=O)CC3)nc21 (centres undefined)
viability, T/C: 118% [middle of 4 runs]

MOLECULE: CC(=O)OC12COC1CC(O)C1(C)C(=O)C(O)C3=C(C)C(OC(=O)C(O)C(NC(=O)OC(C)(C)C)c4ccccc4)CC(O)(C(OC(=O)c4ccccc4)C21)C3(C)C (centres undefined)
viability, T/C: 42.6% [middle of 4 runs]

MOLECULE: Cc1nc(N2CCC3(CC2)COC(C)C3N)c(CO)nc1Sc1ccnc(N)c1Cl (centres undefined)
viability, T/C: 67% [middle of 4 runs]

MOLECULE: NC1c2ccccc2OC12CCN(c1cnc3c(N4CCCc5ncccc54)n[nH]c3n1)CC2 (centres undefined)
viability, T/C: 54.8% [middle of 4 runs]

====

tested on: 521955-158-R2-J5-PDC complex spheroids, viability; test: Anticancer human tumor 521955-158-R2-J5-PDC cell line growth inhibition [RAS]; settings: second compound 0.3 µM; first compound 10 µM; active compounds read low;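 further: spheroids also contain HUVEC endothelial cells and mesenchymal stem cells as stroma; compound exposure lasted seven days before the viability read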

COMPOUND: C[C@@H](NC(=O)c1ncnc(N)c1Cl)c1ncc(C(=O)Nc2cc(C(F)(F)F)c(Cl)cn2)s1 + CCn1c(-c2cc(N3CCN(C)CC3)cnc2C(C)OC)c2c3cc(ccc31)-c1csc(n1)CC(NC(=O)C1CC1C)C(=O)N1CCCC(N1)C(=O)OCC(C)(C)C2
MEASURE_UNIT: %
viability, T/C: 12.3
--
COMPOUND: CC1(O)CCCC1n1c(=O)c(C(F)F)cc2cnc(NC3CCN(S(C)(=O)=O)CC3)nc21 (stereo not drawn) + CCn1c(-c2cc(N3CCN(C)CC3)cnc2C(C)OC)c2c3cc(ccc31)-c1csc(n1)CC(NC(=O)C1CC1C)C(=O)N1CCCC(N1)C(=O)OCC(C)(C)C2
MEASURE_UNIT: %
viability, T/C: 6.07
--
COMPOUND: CC1(O)CCCC1n1c(=O)c(C(F)F)cc2cnc(NC3CCN(S(C)(=O)=O)CC3)nc21 (stereo not drawn) + CCn1c(-c2cccnc2C(C)OC)c2c3cc(ccc31)N1CCOC(CC(NC(=O)C(C(C)C)N(C)C(=O)C3(F)CCN(C(=O)C#CC(C)(C)N(C)C)CC3)C(=O)N3CCCC(N3)C(=O)OCC(C)(C)C2)C1
MEASURE_UNIT: %
viability, T/C: 9.67
--
COMPOUND: CCC(CC)c1cc(NC2CCC(N)C2)n2nccc2n1 (stereo not drawn) + CCn1c(-c2cc(N3CCN(C)CC3)cnc2C(C)OC)c2c3cc(ccc31)-c1csc(n1)CC(NC(=O)C1CC1C)C(=O)N1CCCC(N1)C(=O)OCC(C)(C)C2
MEASURE_UNIT: %
viability, T/C: 8.49
--
COMPOUND: Cc1nc(N2CCC3(CC2)COC(C)C3N)c(CO)nc1Sc1ccnc(N)c1Cl (stereo not drawn) + CCn1c(-c2cc(N3CCN(C)CC3)cnc2C(C)OC)c2c3cc(ccc31)-c1csc(n1)CC(NC(=O)C1CC1C)C(=O)N1CCCC(N1)C(=O)OCC(C)(C)C2
MEASURE_UNIT: %
viability, T/C: 9.18
--
COMPOUND: C[C@@H](NC(=O)c1ncnc(N)c1Cl)c1ncc(C(=O)Nc2cc(C(F)(F)F)c(Cl)cn2)s1 + CCn1c(-c2cccnc2C(C)OC)c2c3cc(ccc31)N1CCOC(CC(NC(=O)C(C(C)C)N(C)C(=O)C3(F)CCN(C(=O)C#CC(C)(C)N(C)C)CC3)C(=O)N3CCCC(N3)C(=O)OCC(C)(C)C2)C1
MEASURE_UNIT: %
viability, T/C: 46.1
--
COMPOUND: CC(Nc1ccc2c(c1)OCCn1cc(N3C(=O)OCC3C(F)F)nc1-2)C(N)=O (stereo not drawn) + CCn1c(-c2cccnc2C(C)OC)c2c3cc(ccc31)N1CCOC(CC(NC(=O)C(C(C)C)N(C)C(=O)C3(F)CCN(C(=O)C#CC(C)(C)N(C)C)CC3)C(=O)N3CCCC(N3)C(=O)OCC(C)(C)C2)C1
MEASURE_UNIT: %
viability, T/C: 12.8
--
COMPOUND: CC(=O)OC12COC1CC(O)C1(C)C(=O)C(O)C3=C(C)C(OC(=O)C(O)C(NC(=O)OC(C)(C)C)c4ccccc4)CC(O)(C(OC(=O)c4ccccc4)C21)C3(C)C (stereo not drawn) + CCn1c(-c2cc(N3CCN(C)CC3)cnc2C(C)OC)c2c3cc(ccc31)-c1csc(n1)CC(NC(=O)C1CC1C)C(=O)N1CCCC(N1)C(=O)OCC(C)(C)C2
MEASURE_UNIT: %
viability, T/C: 7.75

====

tested on: 521955-158-R2-J5-PDC complex spheroids, viability; assay: Anticancer human tumor 521955-158-R2-J5-PDC cell line growth inhibition [RAS]; details: second compound 0.003 µM; first compound 0.1 µM; active compounds read low;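 further: spheroids also contain HUVEC endothelial cells and mesenchymal stem cells as stroma; compound exposure lasted seven days before the viability read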
Listed below: viability, T/C values for each entry.

MOLECULE: Cc1nc(N2CCC3(CC2)COC(C)C3N)c(CO)nc1Sc1ccnc(N)c1Cl (stereo not drawn) + CCn1c(-c2cc(N3CCN(C)CC3)cnc2C(C)OC)c2c3cc(ccc31)-c1csc(n1)CC(NC(=O)C1CC1C)C(=O)N1CCCC(N1)C(=O)OCC(C)(C)C2
viability, T/C (%): 40.7
//
MOLECULE: C=CC(=O)Nc1cc(Nc2nccc(-c3cn(C)c4ccccc34)n2)c(OC)cc1N(C)CCN(C)C + CCn1c(-c2cc(N3CCN(C)CC3)cnc2C(C)OC)c2c3cc(ccc31)-c1csc(n1)CC(NC(=O)C1CC1C)C(=O)N1CCCC(N1)C(=O)OCC(C)(C)C2
viability, T/C (%): 43.5
//
MOLECULE: CCC(CC)c1cc(NC2CCC(N)C2)n2nccc2n1 (stereo not drawn) + CCn1c(-c2cc(N3CCN(C)CC3)cnc2C(C)OC)c2c3cc(ccc31)-c1csc(n1)CC(NC(=O)C1CC1C)C(=O)N1CCCC(N1)C(=O)OCC(C)(C)C2
viability, T/C (%): 44.3

The reported numbers originate from PubChem BioAssay AID2060900.
